Recorded activity change, negative = inhibition, one value per entry.
# assay.details: T. gondii ME49Luc in HeLa cells, luciferase assay, 72 h, no IFN-y (AID 1259421)
# condition: stronger effect = lower value, concentration not given here
Among all 6,400 compounds or so, about 610 (9.5%) were called active. What follows is part of a selection rich in actives, with near analogues and random picks from the rest.
quantity: activity change, negative = inhibition (%)

compound	test.result
O=c1cc(N2CCOCC2)oc2c(-c3ccccc3)cccc12	13.4
O=[N+]([O-])c1cn2c(n1)OC[C@@H](OCc1ccc(OC(F)(F)F)cc1)C2	-78.6
CCCCCCCCCCCCC/C=C/[C@@H](O)[C@H](COC1OC(CO)C(OC2OC(CO)C(OC3OC(CO)C(O)C(OC4OC(CO)C(O)C(O)C4O)C3NC(C)=O)C(OC3(C(=O)O)CC(O)C(NC(C)=O)C(C(O)C(O)CO)O3)C2O)C(O)C1O)NC(=O)CCCCCCCCCCCCCCCCC (some centres undefined)	8.33
NC(=O)c1ccc[n+]([C@@H]2O[C@H](COP(=O)(O)OP(=O)(O)OC[C@H]3O[C@@H](n4cnc5c(N)ncnc54)[C@H](O)[C@@H]3O)[C@@H](O)[C@H]2O)c1	-1.89
CC(C)c1ccc2c(c1)CCC1[C@](C)(CN)CCC[C@]21C (some centres undefined)	3.16
COc1ccc(-c2nc(N3CCOCC3)c3sc(CN(C)c4ncc(C(=O)NO)cn4)cc3n2)cn1	-89.4
NC1=N[C@H]2[C@H](CS[C@H]2CCCCC(=O)O)N1	20.2
CCN(CC)CCn1c(=O)c(Cc2ccc(OC)cc2)nc2ccccc21	-5.78
CN1N=C(C(N)=O)CCC1=O	5.39
N#Cc1ccc(C(c2ccc(C#N)cc2)n2cncn2)cc1	0.399
C=CCN1CCc2nc(N)sc2CC1	0.82
C=CC(C)(O)CCC=C(C)C (centres undefined)	11.3
NC(Cc1ccc(F)cc1)C(=O)O (centres undefined)	2.32
OCC1OC(O)C(F)C(O)C1O (centres undefined)	8.12
COc1cc(OC)c(C(C)=O)c(O)c1C	2.79
CCCCCCCC/C=C/CCCCCCCC(=O)NCc1ccc(O)c(OC)c1	6.46
NCCCCCC(O)(P(=O)(O)O)P(=O)(O)O	13
CS(=O)(=O)N1CCN(Cc2cc3nc(-c4cccc5[nH]ncc45)nc(N4CCOCC4)c3s2)CC1	-19.3
Cc1cccn2c(=O)c(-c3nn[nH]n3)cnc12	0.433
COc1c2ccoc2cc2oc(C)cc(=O)c12	0.747
Cc1cccc(-c2[nH]ncc2-c2ccc3ncccc3n2)n1	-16
Cc1ccc(S(=O)(=O)c2ccc([N+](=O)[O-])o2)cc1	10.8
CC1(C)SC2C(NC(=O)[C@H](NC(=O)N3CCNC3=O)c3ccccc3)C(=O)N2C1C(=O)O (some centres undefined)	33.6
O=C(NC1CCOCC1)c1ccc(-c2cc(-c3cn[nH]c3-c3ccccn3)ccn2)cc1	-1.45
CC(=O)O[C@@H]1CC2C(C)(C)C(=O)CC[C@]2(C)C2CC[C@@]3(C)[C@H](c4ccoc4)OC(=O)C4OC43[C@@]21C (some centres undefined)	21.5
CO/N=C(/C(=O)NC1C(=O)N2C(C(=O)O)=C(CSc3nnnn3C)CSC12)c1csc(N)n1 (centres undefined)	8.82
CCc1c2c(nc3ccc(OC(=O)N4CCC(N5CCCCC5)CC4)cc13)-c1cc3c(c(=O)n1C2)COC(=O)[C@]3(O)CC	8.52
C[C@@H]1CN(Cc2ncccn2)C[C@H]1c1nc2c(cnn2C2CCOCC2)c(=O)[nH]1	4.49
COc1ccc(N2CCOCC2)c2sc(NC(=O)N3CCC(C)(O)CC3)nc12	12.2
CCc1c2c(nc3ccc(O)cc13)-c1cc3c(c(=O)n1C2)COC(=O)[C@]3(O)CC	-93.3
CCc1cc(-c2n[nH]c(C)c2-c2ccc3c(c2)OCCO3)c(O)cc1O	-16.3
O=C(O)C1/C(=C\CO)OC2CC(=O)N21 (centres undefined)	6.21
CCC(CC)O[C@@H]1C=C(C(=O)O)C[C@H](N)[C@H]1NC(C)=O	3.98
COC(=O)N[C@H](C(=O)N1CC2(CC2)C[C@H]1c1ncc(-c2ccc3c(c2)C(F)(F)c2cc(-c4ccc5nc([C@@H]6[C@H]7CC[C@H](C7)N6C(=O)[C@@H](NC(=O)OC)C(C)C)[nH]c5c4)ccc2-3)[nH]1)C(C)C	-11.8
NCCNS(=O)(=O)c1cccc2c(Cl)cccc12	-0.625
O=C(O)c1cc2cc(Cl)ccc2[nH]1	10.5
NCCCC[C@H](NC(=O)[C@@H](Cc1cc(Br)c(O)c(Br)c1)NC(=O)N1CCC(N2Cc3ccccc3NC2=O)CC1)C(=O)N1CCN(c2ccncc2)CC1	15.1
FC(F)(F)c1ccccc1-n1ccnc1	-1.27
C=C1CC[C@H](O)C/C1=C/C=C1\CCC[C@]2(C)[C@@H]([C@H](C)CC[C@@H](O)C(C)(C)O)CC[C@@H]12	1.97

----------
# assay.details: T. gondii ME49Luc in HeLa cells, luciferase assay, 72 h, no IFN-y (AID 1259421)
# condition: concentration not given here
The whole screen tested about 6,400 compounds, of which about 610 (9.5%) were called active. Cut-off read from the data, not from the text of the source: active = activity change below about -70%; inconclusive = no clear call, values can overlap the other calls; inactive = above that. Many of the other results were omitted from the sample, so actives are more common in it than they were.
Classes used: YES = active, NO = inactive

molecule	answer.label
CC1CCC(C(=O)N(c2cc(C#CC(C)(C)C)sc2C(=O)O)C2CCC(O)CC2)CC1 (centres undefined)	NO
C[C@]12CC[C@@H]3c4ccc(O)cc4C[C@@H](CCCCCCCCCS(=O)CCCC(F)(F)C(F)(F)F)[C@H]3[C@@H]1CC[C@@H]2O (some centres undefined)	YES
O=C1NC(O)CCN1[C@@H]1O[C@H](CO)[C@@H](O)[C@H]1O (some centres undefined)	NO
CC(C)Oc1ccc(-c2cnc3c(-c4ccnc5ccccc45)cnn3c2)cc1	NO
COc1cccc(Nc2c(C(N)=O)cnc3c(C)cc(S(=O)(=O)c4cccc(C(=O)N(C)C)c4)cc23)c1	NO
COc1cc(O)cc([C@@H]2CC(=O)c3c(O)cc(O[C@@H]4O[C@H](CO)[C@@H](O)[C@H](O)[C@H]4O[C@@H]4O[C@@H](C)[C@H](O)[C@@H](O)[C@H]4O)cc3O2)c1	NO
CCCCC(=O)O[C@H]1CC[C@H]2[C@@H]3CCc4cc(O)ccc4[C@H]3CC[C@]12C	NO
COc1ccc(-c2cnc3c(-c4cccc5ncccc45)cnn3c2)cc1	NO
COC(=O)C1CC2=CC(=O)CCC2(C)C23OC2CC2(C)C(CCC24CCC(=O)O4)C13 (centres undefined)	NO

----------
Known activity change, negative = inhibition of a selection of molecules
# assay.details: T. gondii ME49Luc in HeLa cells, luciferase assay, 72 h, no IFN-y (AID 1259421)
# condition: stronger effect = lower value, concentration not given here
Screen size: about 6,400 compounds; about 610 (9.5%) were called active. The sample holds actives, similar compounds and a random draw of the others, so the mix is not that of the screen.

molecule	activity change, negative = inhibition [%]
CCC[C@@H](N[C@@H](C)C(=O)N1[C@@H](C(=O)O)C[C@@H]2CCCC[C@@H]21)C(=O)OCC	10.1
N[C@@]1(C(=O)O)CC[C@H]2[C@H](C(=O)O)[C@H]21	6.82
CC(C)C[C@H](NC(=O)CNC(=O)c1cc(Cl)ccc1Cl)B1OC(=O)CC(CC(=O)O)(C(=O)O)O1 (some centres undefined)	-87.8
CCN(Cc1cccc(S(=O)(=O)O)c1)c1cccc(C(=C2C=CC(=[N+](CC)Cc3cccc(S(=O)(=O)O)c3)C=C2)c2ccc(O)cc2S(=O)(=O)O)c1	-44.9
CC/C=C\C/C=C\C/C=C\C/C=C\C/C=C\CCCC(=O)O	2.92
O=C(N/N=C/c1ccc([N+](=O)[O-])o1)c1ccc(O)cc1	-85.5
O=C(Nc1cccc(Cl)c1)c1ccccn1	154
COc1ccc2cc(-c3cc(-c4cc(Cl)cc(Cl)c4)nn3[C@@H](C)c3ccc(C(=O)NCCC(=O)O)cc3)ccc2c1	-64.1
CO[C@@]1(NC(=O)C2SC(=C(C(N)=O)C(=O)O)S2)C(=O)N2C(C(=O)O)=C(CSc3nnnn3C)CSC21 (some centres undefined)	5.67
C#C[C@]1(O)CCC2C3CCC4=C(CCC(=O)C4)C3CC[C@@]21C (some centres undefined)	-83.2
COC(=O)c1cc(Cl)ccc1OC	1.3
COC(=O)[C@H](Cc1cccc(C(=N)N)c1)[C@@H](C)NC(=O)c1ccc(-c2cc[n+]([O-])cc2)cc1	-6.72
O=C(CNC(=O)c1ccc(Cl)cc1)NO	36.3
CCCCCCCCCCCCCCCC(=O)C1C(=O)OC(CO)C1=O (centres undefined)	6.7
CNC(=O)[C@@H](c1ccccc1)N1CCc2cc(OC)c(OC)cc2[C@@H]1CCc1ccc(C(F)(F)F)cc1	7.93
COC(=O)NC(C(=O)N[C@@H](Cc1ccccc1)C(O)CN(Cc1ccc(-c2ccccn2)cc1)NC(=O)C(NC(=O)OC)C(C)(C)C)C(C)(C)C (some centres undefined)	-10.1
Cc1[nH]c(/C=C2\C(=O)Nc3ccc(S(=O)(=O)N(C)c4cccc(Cl)c4)cc32)c(C)c1C(=O)N1CCN(C)CC1	-35.8
C#C[C@]1(O)CCC2C3CCC4=CC(=O)CC[C@@H]4C3CC[C@@]21CC (some centres undefined)	-16.7
N[C@@H](CSCC(=O)O)C(=O)O	14.1
